# Tested on: PC3 cells
# TEST: EB1 Comet (microtubule disruption) assay
# Format: cell-based, human
# APPLIED_CONDITIONS: Homo sapiens, PC-3, 1 h, 1 hour treatment, read-out: EB1 pLAC (converted)
MEASUREMENT_KIND: minimal effective concentration

Solved cases (8 shown):
CCc1cc2ccc(C(C)(C#N)Cc3ccccc3Br)cc2[nH]c1=O (centres unmarked) | 0.316 µM
Cc1cc2ccc(C(C)(C#N)Cc3cccc(Oc4ccc(F)cc4)c3)cc2[nH]c1=O (centres unmarked) | 1 µM
CCc1cc2ccc([C@@](C)(C#N)Cc3ccccc3)cc2[nH]c1=O (single isomer, unassigned) | 0.1 µM
CCc1cc2ccc(C(C)(C#N)CN(C)Cc3ccc(C#N)cc3)cc2[nH]c1=O (centres unmarked) | 0.1 µM
CCc1cc2ccc(C(C)(C#N)CC3COc4ccccc4O3)cc2[nH]c1=O (single isomer, unassigned) | 1 µM
CCc1c(Cl)c2ccc(C(C)(C#N)Cc3cccc(C#N)c3)cc2[nH]c1=O (centres unmarked) | 1 µM
CCc1cc2ccc(C(C)(C#N)Cc3cccc(C#CCO)c3)cc2[nH]c1=O (centres unmarked) | < 0.0316 µM
CCc1cc2ccc(C(C)(C#N)Cc3cccc(Br)c3C)cc2[nH]c1=O (centres unmarked) | 0.316 µM

Look up minimal effective concentration for this compound: CCc1cc2ccc(C(C)(C#N)Cc3ccc(F)cc3F)cc2[nH]c1=O (centres unmarked) 1 µM

Entry CCc1cc2ccc(C(C)(C#N)Cc3cccc(C#CCN(C)C)c3)cc2[nH]c1=O (centres unmarked) please 1 µM

Item: CCc1cc2ccc(C(C)(C#N)Cc3cc(C)cc(C#N)c3)cc2[nH]c1=O (centres unmarked) 0.1 µM

Follow-up item: CCc1cc2ccc(C(C)(C#N)CCOc3nccc(OC)n3)cc2[nH]c1=O (centres unmarked) 1 µM

Please answer likewise for CCc1cc2ccc(C(C)(C#N)Cc3cccc(N(C)C)c3)cc2[nH]c1=O (centres unmarked) 0.1 µM

Next record, please: CCc1cc2ccc(C(C)(C#N)Cc3cc4ccccc4nn3)cc2[nH]c1=O (centres unmarked) 1 µM

For Cc1cc2ccc(C(C)(C#N)Cc3ccc(Cl)s3)cc2[nH]c1=O (centres unmarked) then? 0.316 µM

Now consider CCc1cc2ccc(C(C)(C#N)Cc3cccc(C(=O)N(C)C)c3)cc2[nH]c1=O (centres unmarked) and answer again. 3.16 µM

Next up: CCc1cc2ccc(C(C)(C#N)Cc3cc4c(cc3Cl)OCO4)cc2[nH]c1=O (centres unmarked) 0.1 µM
